# measuredTarget: T1, VPS4A MIT domain (VPS4A residues 1−84) (human, UniProt Q9UN37 1-84)
# T1 sequence (looked up): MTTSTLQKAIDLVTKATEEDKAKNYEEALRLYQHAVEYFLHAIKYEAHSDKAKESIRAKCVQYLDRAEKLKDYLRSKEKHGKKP
# measurementNotes: SPR
Listing: Kd of selected binders
endpointName: Kd

• LPEVPSEPLPEK (domain or fragment, human, UniProt Q96FZ7 170-181, looked up) [GST-CHMP6_(170−181) minimal fragment] = 8 µM
• QEQIELPEVPSEPLPEK (domain or fragment, human, UniProt Q96FZ7 165-181, looked up) [GST-CHMP6_(165−181) fragment] = 5.8 µM
